All figures here come from patent US10039759B2.

# targetEntity: Ba/F3-FGFR4-transfected cells (Homo sapiens, UniProt P22455)
# Sequence (P22455 whole entry, change not shown): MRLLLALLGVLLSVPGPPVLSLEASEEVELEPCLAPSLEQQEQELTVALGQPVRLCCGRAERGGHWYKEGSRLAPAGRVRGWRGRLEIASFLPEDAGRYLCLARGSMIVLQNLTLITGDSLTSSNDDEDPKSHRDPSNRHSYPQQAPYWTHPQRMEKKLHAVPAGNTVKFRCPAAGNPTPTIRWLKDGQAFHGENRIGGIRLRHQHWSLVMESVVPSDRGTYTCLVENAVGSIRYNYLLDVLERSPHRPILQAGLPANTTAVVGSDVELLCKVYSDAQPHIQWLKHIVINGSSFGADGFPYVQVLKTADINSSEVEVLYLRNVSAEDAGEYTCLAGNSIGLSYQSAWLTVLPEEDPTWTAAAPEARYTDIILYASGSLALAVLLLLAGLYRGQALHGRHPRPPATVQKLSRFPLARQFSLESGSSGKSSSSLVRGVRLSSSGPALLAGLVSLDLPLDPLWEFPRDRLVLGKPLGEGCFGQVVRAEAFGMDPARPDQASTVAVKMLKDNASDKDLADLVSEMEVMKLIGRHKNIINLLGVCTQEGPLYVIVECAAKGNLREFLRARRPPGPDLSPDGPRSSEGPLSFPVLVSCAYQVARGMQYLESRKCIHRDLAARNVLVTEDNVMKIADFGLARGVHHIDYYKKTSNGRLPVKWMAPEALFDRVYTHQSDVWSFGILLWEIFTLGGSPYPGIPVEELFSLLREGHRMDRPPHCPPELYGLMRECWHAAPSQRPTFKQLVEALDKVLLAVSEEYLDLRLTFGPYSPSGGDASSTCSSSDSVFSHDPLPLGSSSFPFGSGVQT
# assayMethodText: Ba/F3-FGFR4 cellular proliferation assay, Alamar Blue
# Format: cell-based
# conditionSummary: 24 hours
BAF3-FGFR 4 (pIC50) vs 6: less than gives fulfilled; not less than gives not fulfilled.

# molecule, assignedCategory
measured = [
    ("COc1cc(OC)cc(N(CCNC(C)C)c2ccc3ncc(-c4cn[nH]c4)cc3c2)c1 [Compound 21]", "not fulfilled"),
    ("COc1cc(OC)cc(N(CCNC(C)C)c2ccc3ncc(-c4cnn(CCS(C)(=O)=O)c4)cc3c2)c1 [Compound 14]", "not fulfilled"),
    ("COc1cc(OC)cc(C(O)c2ccc3ncc(-c4cnn(C)c4)cc3c2)c1 (centres unmarked) [Compound 12]", "fulfilled"),
    ("COc1cc(Nc2ccc3ncc(-c4cnn(C5CCCCO5)c4)cc3c2)cc(OC)c1 (centres unmarked) [Int. 8]", "fulfilled"),
    ("COc1cc(OC)cc(N(CCCNCC(F)(F)F)c2ccc3ncc(-c4cnn(C)c4)cc3c2)c1 [Compound 5]", "fulfilled"),
    ("COc1cc(OC)cc(N(CC#Cc2nccn2C)c2ccc3ncc(-c4cnn(C)c4)cc3c2)c1 [Compound 48]", "not fulfilled"),
    ("COc1cccnc1C#CCN(c1ccc2ncc(-c3cnn(C)c3)cc2c1)c1c(F)c(OC)cc(OC)c1F [Compound 27]", "not fulfilled"),
    ("COc1cc(OC)cc(N(CCO)c2ccc3ncc(-c4ccccc4)cc3c2)c1 [Compound 50]", "fulfilled"),
    ("COc1cc(OC)cc(N(Cc2ncc[nH]2)c2ccc3ncc(-c4ccccc4)cc3c2)c1 [Compound 52]", "fulfilled"),
    ("COc1cc(OC)cc(C(CCNC(C)C)c2ccc3ncc(-c4cnn(C)c4)cc3c2)c1 (centres unmarked) [Compound 41]", "fulfilled"),
    ("COc1cc(OC)cc(C(=O)c2ccc3ncc(-c4cnn(C)c4)cc3c2)c1 [Compound 31]", "fulfilled"),
    ("COc1cc(OC)cc(/C(=C/C#N)c2ccc3ncc(-c4cnn(C)c4)cc3c2)c1 [Compound 29]", "fulfilled"),
    ("COc1cc(OC)cc(N(Cc2ncc[nH]2)c2ccc3ncc(-c4cnn(C)c4)cc3c2)c1 [Compound 18]", "not fulfilled"),
    ("COc1cc(OC)cc(C(CC(N)=O)c2ccc3ncc(-c4cnn(C)c4)cc3c2)c1 (centres unmarked) [Compound 40]", "fulfilled"),
]
